Assign pIC50 to each entry below.
Biological target: GDP-bound KRAS protein (aa 1-169), containing both G12C and C118A amino acid substitutions (Homo sapiens (Human), UniProt P01116, C118A/G12C)
Sequence (P01116 other isoform, or with tags, fused parts or gaps G12C/C118A): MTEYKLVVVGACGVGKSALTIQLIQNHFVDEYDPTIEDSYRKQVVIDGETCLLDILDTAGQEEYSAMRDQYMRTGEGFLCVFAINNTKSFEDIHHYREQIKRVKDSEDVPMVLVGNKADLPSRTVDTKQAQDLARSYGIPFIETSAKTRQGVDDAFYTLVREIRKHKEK
Test: Coupled Nucleotide Exchange Assay
Assay type: biochemical
Conditions: read-out: Coupled Exchange IC50 (2 h); 2 h compound pre-incubation
Numbers only, as −log10 of the molar value.

Some compounds with recorded pIC50:
C=CC(=O)N1CC(NC(=O)Cn2c(C)c(-c3ccccc3CC)c3cc(Cl)ccc32)C1 : 6.19
C=CC(=O)N1CC(NC(=O)Cn2cc(CNCc3ccccc3)c3cc(Br)ccc32)C1 : 5.01
C=CC(=O)N1CC(NC(=O)Cn2c(-c3ccccc3)cc3cc(Br)ccc32)C1 : 4.74

Count: 3. Required value per item: pIC50.
1. C=CC(=O)N1CC(NC(=O)Cn2ccc3cc(Cl)c(Cl)cc32)C1
2. C=CC(=O)N1CC(NC(=O)Cn2cc(C(=O)N3CCc4c(cccc4OC)C3)c3cc(Br)ccc32)C1
3. C=CC(=O)N1CC(NC(=O)Cn2c(C)c(-c3ccccc3N3CCOCC3)c3cc(Cl)ccc32)C1

Response:
1. 3.98
2. 6.19
3. 6.14

# return pIC50 for each item in the list
1. C=CC(=O)N1CC(N(C)C(=O)Cn2c(C)c(C(=O)N3CCN(c4ccc(C(F)(F)F)cn4)CC3)c3cc(Br)ccc32)C1
2. C=CC(=O)N1CC(NC(=O)Cn2c(C3CC3)c(C(=O)N3CCCC(C)(C)C3)c3cc(Cl)cc(C)c32)C1
3. C=CC(=O)N1CC(NC(=O)Cn2c3ccc(Br)cc3c3ccc(Oc4ccccn4)nc32)C1
4. C=CC(=O)N1CC(NC(=O)Cn2cc(I)c3ccc(-c4ccccc4Cl)cc32)C1
5. C=CC(=O)N1CC(N(C)C(=O)Cn2c(C)c(C(=O)N3CCN(c4ccc([N+](=O)[O-])cn4)CC3)c3cc(Br)ccc32)C1
6. C=CC(=O)N1CC(NC(=O)Cn2cc(C(=O)N3CCc4c(C)cccc4C3)c3cc(Cl)cc(Cl)c32)C1

Response:
6.09
6.18
6.00
5.53
6.12
6.66

----------
System: Phosphorylation of ERK1/2 in MIA PaCa-2 cells
Assay: Phospho-ERK1/2 MSD Assay
Type: cell-based
Conditions: Homo sapiens, MIA PaCa-2, read-out: pERK IC50 (4 h); 4 h compound treatment; MiaPaCa-2 cells
observed_property: IC50 (µM)
One number for each entry, in µM.

C=CC(=O)N1CC(NC(=O)Cn2c(C)c(-c3ccccc3OC)c3cc(Cl)ccc32)C1 [Example 125] : 33.6
C=CC(=O)N1CC(NC(=O)Cn2c3ccccc3c3c(Br)cccc32)C1 [Example 117] : 29.6

Hi! Can you tell me IC50 for each of these molecules?
1. C=CC(=O)N1CC(NC(=O)Cn2cc(-c3c(C)ccc4[nH]ncc34)c3cc(Cl)ccc32)C1 [Example 142]
2. C=CC(=O)N1CC(NC(=O)Cn2cc(I)c3cc([N+](=O)[O-])ccc32)C1 [Example 128]

Response:
[44.1, 35.6]

----------
Tested on: Phosphorylation of ERK1/2 in A549 cells
Assay: Phospho-ERK1/2 MSD Assay (A549)
Assay type: cell-based
Details: Homo sapiens, A549, 4 h, read-out: pERK IC50 (4 h, A549), 4 h compound treatment
observed_property: IC50

# count of solved cases: 5
C=CC(=O)N1CC(NC(=O)Cn2cc(C(=O)N3CCc4c(C)cccc4C3)c3cc(Br)cc(C)c32)C1 : > 100 µM
C=CC(=O)N1CC(NC(=O)Cn2cc(C(=O)N3CCN(c4cccc(C)n4)CC3)c3cc(Br)ccc32)C1 : > 33.3 µM
C=CC(=O)N1CC(NC(=O)Cn2c(C)c(C(=O)N3C(C)COCC3C)c3cc(Br)cc(C)c32)C1 (stereo not shown) : > 33.3 µM
C=CC(=O)N1CC(NC(=O)Cn2cc(C(=O)N3CCN(c4ccccn4)CC3)c3cc(Br)ccc32)C1 : > 100 µM
C=CC(=O)N1CC(NC(=O)Cn2c(C)c(C(=O)N3CCOC(C)(C)C3)c3cc(Br)ccc32)C1 : > 100 µM

I need IC50 for every entry listed below, if you could help.
1. C=CC(=O)N1CC(NC(=O)Cn2cc(C(=O)N3CCc4c(Cl)cccc4C3)c3cc(Br)ccc32)C1
2. C=CC(=O)N1CC(NC(=O)Cn2c(C)c(C(=O)N3CCc4c(cccc4OC)C3)c3cc(Cl)ccc32)C1
3. C=CC(=O)N1CC(NC(=O)Cn2cc(C(=O)N(C)Cc3ccccc3)c3cc(Br)ccc32)C1
4. C=CC(=O)N1CC(NC(=O)Cn2cc(C(=O)N(C)CC(=O)Nc3ccc(Cl)c(C(F)(F)F)c3)c3cc(Br)ccc32)C1
5. C=CC(=O)N1CC(NC(=O)Cn2c(C)c(C(=O)N3CCc4c(ccnc4OC)C3)c3cc(Cl)ccc32)C1
6. C=CC(=O)N1CC(NC(=O)Cn2c(C)c(C(=O)N3CCc4c(cccc4OC)C3)c3cc(Br)ccc32)C1C (stereo not shown)
7. C=CC(=O)N1CC(NC(=O)Cn2cc(C(=O)OC)c3cc(Br)ccc32)C1
8. C=CC(=O)N1CC(NC(=O)Cn2cc(C(=O)NCCc3nc(C)c(C)s3)c3cc(Br)ccc32)C1

Response:
1. 21.3 µM
2. > 100 µM
3. > 100 µM
4. > 100 µM
5. > 100 µM
6. > 100 µM
7. > 100 µM
8. > 100 µM

List the reported IC50 of each compound below.
1. C=CC(=O)N1CC(C)(NC(=O)Cn2c(C)c(C(=O)N3CCc4c(cccc4OC)C3)c3cc(Br)ccc32)C1
2. C=CC(=O)N1CC(NC(=O)Cn2c(C)c(C(=O)N3CCc4c(C)cc(Br)cc4C3)c3cc(Br)ccc32)C1
3. C=CC(=O)N1CC(NC(=O)Cn2cc(C(=O)N3CCc4ccccc4C3)c3cc(Br)ccc32)C1
4. C=CC(=O)N1CC(NC(=O)Cn2cc(C(=O)NCCc3nc4c(s3)CCCC4)c3cc(Br)ccc32)C1
5. C=CC(=O)N1CC(NC(=O)Cn2c(C)c(C(=O)N3CCc4ccccc4[C@H]3C)c3cc(Br)cc(C)c32)C1 (stereo in doubt)

Response:
1. 10.2 µM
2. > 100 µM
3. > 100 µM
4. > 100 µM
5. 40.9 µM

Would you mind listing IC50 for each of the following compounds?
1. C=CC(=O)N1CC(N(C)C(=O)Cn2c(C)c(C(=O)N3CCN(c4ccc([N+](=O)[O-])cn4)CC3)c3cc(Br)ccc32)C1
2. C=CC(=O)N1CC(NC(=O)Cn2c(C)c(C(=O)N3CCc4ccccc4C3(C)C)c3cc(Br)cc(C)c32)C1
3. C=CC(=O)N1CC(NC(=O)Cn2cc(C(=O)NCCOc3c(C)cccc3C)c3cc(Br)ccc32)C1

Response:
["> 100 µM", "55.7 µM", "> 100 µM"]

Record IC50 per entry; entries follow.
1. C=CC(=O)N1CC(NC(=O)Cn2cc(C(=O)N3CCN(c4ccc(CN(C)C)cn4)CC3)c3cc(Br)ccc32)C1
2. C=CC(=O)N1CC(NC(=O)Cn2c(C)c(C(=O)N3[C@H](C)c4ccc(F)cc4C[C@@H]3C)c3cc(Br)cc(C)c32)C1
3. C=CC(=O)N1CC(NC(=O)Cn2c(C3CC3)c(C(=O)N3CCC(C)(C)C3)c3cc(Cl)cc(C)c32)C1
4. C=CC(=O)N1CC(NC(=O)Cn2cc(C(=O)N3CC4(CCN4c4ccccn4)C3)c3cc(Br)ccc32)C1

Response:
> 100 µM
41.6 µM
> 100 µM
> 100 µM
